B1: TRIM55 (parent)
chain: ICPICLEMFTKPVVILPCQHNLCR

Variants of: B1
Test: protein stability index of a GFP-peptide fusion (GPS, HEK-293T) (PSI 1-6); higher = more stable;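 further: lentivirally expressed fusions sorted by FACS into six bins by GFP to DsRed ratio, PSI derived from sequencing read proportions per bin multiplied by bin number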
Settings: c terminus: a fixed tail appended
observationType: protein stability index
// no unit, no text: just the number

## Input Look up and state reported protein stability index for Q19S
## Output 2.23

## Input Look up and state reported protein stability index for H20I
## Output 1.45

## Input Look up and state reported protein stability index for I15V
## Output 2.14

## Input Look up and state reported protein stability index for I15C
## Output 2.71

## Input Look up and state reported protein stability index for P17N
## Output 1.86

## Input Look up and state reported protein stability index for N21S
## Output 2.93

## Input Look up and state reported protein stability index for V14A
## Output 2.56

## Input Look up and state reported protein stability index for P12R
## Output 2.05

## Input Look up and state reported protein stability index for E7P
## Output 2.13

## Input Look up and state reported protein stability index for M8N
## Output 1.9

## Input Look up and state reported protein stability index for H20N
## Output 1.88

## Input Look up and state reported protein stability index for N21A
## Output 2.73

## Input Look up and state reported protein stability index for I1L
## Output 2.72

## Input Look up and state reported protein stability index for C23Q
## Output 2.21

## Input Look up and state reported protein stability index for Q19F
## Output 2.05

## Input Look up and state reported protein stability index for I4T
## Output 2.31

## Input Look up and state reported protein stability index for L6F
## Output 2.48

## Input Look up and state reported protein stability index for L16I
## Output 2.05

## Input Look up and state reported protein stability index for V13R
## Output 2.19

## Input Look up and state reported protein stability index for F9Q
## Output 2.49

## Input Look up and state reported protein stability index for K11T
## Output 2.26

## Input Look up and state reported protein stability index for L22E
## Output 2.45

## Input Look up and state reported protein stability index for M8K
## Output 2.98

## Input Look up and state reported protein stability index for P12D
## Output 2.61

## Input Look up and state reported protein stability index for C18K
## Output 1.89

## Input Look up and state reported protein stability index for I4P
## Output 1.94

## Input Look up and state reported protein stability index for L16C
## Output 2.4

## Input Look up and state reported protein stability index for C5W
## Output 1.6

## Input Look up and state reported protein stability index for E7K
## Output 1.87

## Input Look up and state reported protein stability index for C5H
## Output 1.15

## Input Look up and state reported protein stability index for K11A
## Output 3.04

## Input Look up and state reported protein stability index for I15Q
## Output 3.22

## Input Look up and state reported protein stability index for C18L
## Output 1.77

## Input Look up and state reported protein stability index for L16G
## Output 3.03

## Input Look up and state reported protein stability index for Q19C
## Output 1.98

## Input Look up and state reported protein stability index for K11L
## Output 1.9

## Input Look up and state reported protein stability index for C18E
## Output 2.48

## Input Look up and state reported protein stability index for R24H
## Output 2.4

## Input Look up and state reported protein stability index for C5M
## Output 2.09

## Input Look up and state reported protein stability index for V14T
## Output 2.63

## Input Look up and state reported protein stability index for I4D
## Output 2.49

## Input Look up and state reported protein stability index for K11Y
## Output 1.69

## Input Look up and state reported protein stability index for I15W
## Output 1.85

## Input Look up and state reported protein stability index for L6I
## Output 2.32

## Input Look up and state reported protein stability index for C23P
## Output 2.24

## Input Look up and state reported protein stability index for T10P
## Output 2.46

## Input Look up and state reported protein stability index for E7W
## Output 1.89

## Input Look up and state reported protein stability index for C2Y
## Output 2.49

## Input Look up and state reported protein stability index for C2S
## Output 2.55

## Input Look up and state reported protein stability index for P3I
## Output 3.07

## Input Look up and state reported protein stability index for C2Q
## Output 1.73

## Input Look up and state reported protein stability index for Q19P
## Output 2.12

## Input Look up and state reported protein stability index for P12I
## Output 2.23

## Input Look up and state reported protein stability index for E7H
## Output 2.29

## Input Look up and state reported protein stability index for P12H
## Output 2.04

## Input Look up and state reported protein stability index for N21K
## Output 1.74

## Input Look up and state reported protein stability index for I1M
## Output 2.44

## Input Look up and state reported protein stability index for T10F
## Output 1.74

## Input Look up and state reported protein stability index for I15F
## Output 2.32

## Input Look up and state reported protein stability index for C2T
## Output 1.6

## Input Look up and state reported protein stability index for I1F
## Output 2.58

## Input Look up and state reported protein stability index for H20E
## Output 1.68

## Input Look up and state reported protein stability index for L22T
## Output 2.17

## Input Look up and state reported protein stability index for F9R
## Output 2.18

## Input Look up and state reported protein stability index for L16T
## Output 2.77

## Input Look up and state reported protein stability index for C5N
## Output 2.01

## Input Look up and state reported protein stability index for T10E
## Output 2.59

## Input Look up and state reported protein stability index for Q19A
## Output 2.05

## Input Look up and state reported protein stability index for V14L
## Output 2.29

## Input Look up and state reported protein stability index for V13E
## Output 2.61

## Input Look up and state reported protein stability index for P3T
## Output 2.45

## Input Look up and state reported protein stability index for L16D
## Output 2.61

## Input Look up and state reported protein stability index for F9P
## Output 2.85

## Input Look up and state reported protein stability index for L6A
## Output 2.03

## Input Look up and state reported protein stability index for V13K
## Output 2.15

## Input Look up and state reported protein stability index for C2E
## Output 2.05

## Input Look up and state reported protein stability index for R24G
## Output 2.41

## Input Look up and state reported protein stability index for H20R
## Output 1.45

## Input Look up and state reported protein stability index for P3F
## Output 1.6

## Input Look up and state reported protein stability index for V13H
## Output 2.63

## Input Look up and state reported protein stability index for K11F
## Output 2.2

## Input Look up and state reported protein stability index for P12T
## Output 2.34
